molecular target: T1, KIR2DL5-Ig fusion protein (KIR2DL5 extracellular domain fused to human IgG1 Fc) (human, UniProt Q8N109 22-240); assay: BLI, Octet RED96; KIR2DL5-Ig captured on anti-human Fc biosensors, mAb in solution; global 1:1 fit
T1 construct: A D0-only fusion (H22-A128) also exists; also called KIR2DL5-human Ig fusion protein; KIR2DL5 DO-D2-Ig; not shown: human IgG1 Fc tag
T1 sequence (Q8N109 22-240): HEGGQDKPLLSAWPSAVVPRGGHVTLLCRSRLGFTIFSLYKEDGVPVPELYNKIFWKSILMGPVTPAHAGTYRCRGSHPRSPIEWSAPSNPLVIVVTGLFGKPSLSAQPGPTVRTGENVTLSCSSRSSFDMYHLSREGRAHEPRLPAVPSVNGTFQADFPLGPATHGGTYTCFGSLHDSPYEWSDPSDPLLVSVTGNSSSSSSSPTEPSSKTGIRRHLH
Property label: kon (M⁻¹ s⁻¹)
Write the number in M⁻¹ s⁻¹ without appending the unit.

Worked examples, 3 binders total:
1. anti-KIR2DL5 mAb clone B11B4 (antibody, V domains shown, also called B11B4 (IgG2b, κ)) VH: QVQLQQSGGELVKPGASVKMSCKAFGYTFTSFPIEWMKQNHGKSLEWIGNFHPYNDDTKYNEKFNGKAKLTAETSSKTVYLELSRLTSDDCSVYYCARGSDYSFGLDYWGQGTSVTVSS VL: GIVLTQSPASLVVSLGQRATISCRASESVDSYGYSFMHWYQQKPGQPPKLLIYRASNLKSGIPARFSGSGCRTDFTLTINPVEADDVATYYCQQSNEDPWTFGGGTKAGN = 825000
2. anti-KIR2DL5 mAb clone B7B23 (antibody, V domains shown, also called B7B23 (IgG1, κ)) VH: QVQLQQSGAELVRPGVSVKISCKGSGYTFTDYTMHWVKQSHAKSLEWIGVISPYYGDASYNQKFKGKATMTVDKSSSTAYMELARLTSEDSAIYYCARGLLRGFAYWGQGTLVTVS VL: DIVMTQSPSSKDMSVGQKVTMRCKSSKSLLNSSNQKKYLAWYQQKPGQSPKLLVYFASIRESGVPDRFIGSGSGTDFTLTISSVQVEDLADYFCQQHYSTPWTFGGG = 1.69e+06
3. anti-KIR2DL5 mAb clone F8B30 (antibody, V domains shown, also called F8B30 (IgG1, κ)) VH: QIQLVQSGPELKKPGETVKISCKASGYTFTDYSMHWVKQAPGKGLKWMGWINTETGGPTYADDFKGRFAFSLETSATTAYLQINNLKNEDTATYFCSRDVDLYFDYWGQGTTLTVS VL: DIQMTQSPASLSASVGETVTITCRTSENIYSYLAWYQQKQGKSPQLLVYNAKTLVEGVPSRFSGSGSGTQFSVKINSLQPEDFGNYYCQHHYGIPFTFGGGTKLEIK = 615000

Lookup: Give the value of kon reported for the following: anti-KIR2DL5 mAb clone B33C12 (antibody, V domains shown, also called B33C12 (IgG2a, κ)) VH: QVQLQQSGAELVKPGASVKMSCKAFGYTFTSFPIEWMKQNHGKSLEWIGNFHPSNDDTKYNEKFNGKAKLTAETSSKTVYLELSRLTSDDSAVYYCARGSDYSFALDYWGQGTSVTVSS VL: GIVLTQSPASLAVSLGQRATISCRASESVDSYGYSFMHWYQQKPGQPPKLLIYRASNLKSGIPARFSGSGSRTDFTLTINPVEADDVATYYCQQSNEDPWTFGGGTKLEIK
Found: 835000

Lookup: Look up and report measured kon for this entry: anti-KIR2DL5 mAb clone B2A18 (antibody, V domains shown, also called B2A18, (IgG1, κ)) VH: QIQLVQSGPEVKKPGETVKISCKASGYTFTKYGMNWVKQAPGKGLKWMGWINTNTGESTYAEDFKGRFAFSLETSANTAFLQINNLKNEDTAAYFCARWGPYGSSLYYGMDYWGQGTSVTVS VL: DIQMTQSSSSFSISLGDRVTITCRASEDLYNRLAWYQQKPGNAPRLLISGATSLETGVPSRFSGSGSGKDFTLSIPSVQTEDVGTYYCQQYRYTPWTFGGGTTLN
Found: 1.68e+06
